- procedureDetails: activity coefficient (dimensionless); of the first substance listed, at infinite dilution; xn = mol fraction of the nth substance listed
- experimentalConditions: 313.15 K; 101.33 kPa; Liquid; Chromatography; x1 = 0
Catalogue of compounds with associated activity coefficient
A bare number is all that is needed in reply.

Sample records with activity coefficient:
- CC1CCCCC1 [methylcyclohexane] + OCCOCCO: 71.1
- CCCCC [pentane] + OCCOCCO: 70.5
- CCCCCCC [heptane] + OCCO: 1030

Lookup result for C=CCCCCCCC [1-nonene] + OCCOCCO ; measured activity coefficient: 174

Record C1CCCCC1 [cyclohexane] + OCCO , field activity coefficient: 238

For reference, reported activity coefficient for CCCCCCCCC [nonane] + OCCOCCO stands at 329

# activity coefficient of C=CCCCCCC [oct-1-ene] + OCCOCCO = 116

Record CCCCCCCC [octane] + OCCO , field activity coefficient: 1600

* * *

- procedureDetails: activity coefficient (dimensionless); of the first substance listed, at infinite dilution; xn = mol fraction of the nth substance listed
- experimentalConditions: 304.15 K; 101.33 kPa; Liquid; Chromatography; x1 = 0
Could you mark each record 1 (yes) if its activity coefficient falls strictly under 70, and 0 (no) if it equals or exceeds it?

Use the examples below as a reference point.
* C1CCCCC1 [cyclohexane] + OCCOCCO | 1 (yes)
* C=CCCCCCCC [1-nonene] + OCCOCCO | 0 (no)
* CCCCCCCC [octane] + OCCOCCO | 0 (no)

I wonder whether CCCCCC [hexane] + OCCOCCO has activity coefficient below 70. Can you tell?
0 (no)

Item CCCCC [pentane] + OCCOCCO : activity coefficient beneath 70, strictly?
0 (no)

Check if activity coefficient falls below 70 for C=CCCCCCC [oct-1-ene] + OCCOCCO .
0 (no)

Quick check: activity coefficient of C1CCCC1 [cyclopentane] + OCCOCCO under 70?
1 (yes)

Hello, is activity coefficient of the following compound strictly smaller than 70? C=CCCCCC [1-heptene] + OCCOCCO
0 (no)

Threshold test, activity coefficient < 70: CC1CCCCC1 [methylcyclohexane] + OCCOCCO
0 (no)

* * *

- procedureDetails: activity coefficient (dimensionless); of the first substance listed, at infinite dilution; xn = mol fraction of the nth substance listed
- experimentalConditions: 303.15 K; 101.33 kPa; Liquid; Chromatography; x1 = 0
Labelling: activity coefficient reported below 1000 becomes Criterion met; at or above becomes Criterion not met.

• CCCCCCCCC [nonane] + OCCO = Criterion not met
• CC1CCCCC1 [methylcyclohexane] + OCCO = Criterion met
• CCCCCCCC [octane] + OCCO = Criterion not met
• C1CCCCC1 [cyclohexane] + OCCO = Criterion met
• C1CCCC1 [cyclopentane] + OCCO = Criterion met
• CCCCCC [hexane] + OCCO = Criterion met

Quick check: activity coefficient of C=CCCCCCCC [1-nonene] + OCCO under 1000?
Criterion not met

Regarding C=CCCCCC [1-heptene] + OCCO , kindly confirm whether its activity coefficient is beneath 1000.
Criterion met

For C=CCCCC [hex-1-ene] + OCCO , is the recorded activity coefficient below the cut-off of 1000?
Criterion met

Is the reported activity coefficient for CCCCCCC [heptane] + OCCO strictly below 1000?
Criterion not met

Could you please tell me whether activity coefficient recorded for C=CCCCCCC [oct-1-ene] + OCCO is less than 1000?
Criterion met

# check: activity coefficient < 1000 for CCCCC [pentane] + OCCO
Criterion met

* * *

- procedureDetails: activity coefficient (dimensionless); of the first substance listed, at infinite dilution; xn = mol fraction of the nth substance listed
- experimentalConditions: 323.15 K; 101.33 kPa; Liquid; Chromatography; x1 = 0
A collection of molecules and their measured activity coefficient

As a guide, the following entries are already answered.
- CCCCCC [hexane] + OCCOCCO: 94.2
- C=CCCCCCC [oct-1-ene] + OCCO: 736
- CC1CCCCC1 [methylcyclohexane] + OCCO: 370
- CCCCCCC [heptane] + OCCO: 860
- C=CCCCCCCC [1-nonene] + OCCO: 1170

What the record says about CCCCC [pentane] + OCCOCCO : activity coefficient is 66.4

Looking up C=CCCCC [hex-1-ene] + OCCO , I see its activity coefficient listed as 272

GET /value?item= CCCCCC [hexane] + OCCO &field=activity coefficient returns 543

* * *

- procedureDetails: activity coefficient (dimensionless); of the first substance listed, at infinite dilution; xn = mol fraction of the nth substance listed
- experimentalConditions: 313.15 K; 101.33 kPa; Liquid; Chromatography; x1 = 0
Checkbox rule: activity coefficient lower than 300 = rule met; activity coefficient not lower than 300 = rule not met.

Illustrative cases are given below, each with its answer.
- CC1CCCCC1 [methylcyclohexane] + OCCO: rule not met
- CCCCCCCC [octane] + OCCOCCO: rule met
- CCCCCC [hexane] + OCCOCCO: rule met
- C=CCCCC [hex-1-ene] + OCCOCCO: rule met
- CCCCCC [hexane] + OCCO: rule not met

Would you kindly look at the next entry?
Input C=CCCCCC [1-heptene] + OCCO ; condition: activity coefficient strictly below 300. Does it hold?
rule not met

* * *

- procedureDetails: activity coefficient (dimensionless); of the first substance listed, at infinite dilution; xn = mol fraction of the nth substance listed
- experimentalConditions: 304.15 K; 101.33 kPa; Liquid; Chromatography; x1 = 0
reportedProperty: activity coefficient
Respond with the number and no other words.

• CCCCCCCCC [nonane] + OCCOCCO = 371
• C=CCCCC [hex-1-ene] + OCCOCCO = 56.3

The record that follows has no activity coefficient shown yet.
The molecule identified as CCCCCCC [heptane] + OCCOCCO registered its activity coefficient at 174

* * *

The following compounds are shown together with reported activity coefficient values.
- procedureDetails: activity coefficient (dimensionless); of the first substance listed, at infinite dilution; xn = mol fraction of the nth substance listed
- experimentalConditions: 323.15 K; 101.33 kPa; Liquid; Chromatography; x1 = 0
// no unit, no text: just the number

Some solved entries appear below for comparison.
- C1CCCCC1 [cyclohexane] + OCCOCCO: 43.5
- C=CCCCCC [1-heptene] + OCCOCCO: 73.4
- C=CCCCCCCC [1-nonene] + OCCOCCO: 159
- CCCCCCCCC [nonane] + OCCO: 1970
- C1CCCC1 [cyclopentane] + OCCO: 133

The compound listed as C=CCCCC [hex-1-ene] + OCCOCCO has a reported activity coefficient of 50.2

Lab note: measured activity coefficient of CCCCCCCCC [nonane] + OCCOCCO was 295

The reported value for CC1CCCCC1 [methylcyclohexane] + OCCOCCO in terms of activity coefficient is 66

Measured activity coefficient, C=CCCCCC [1-heptene] + OCCO : 452

The value of activity coefficient measured for the compound C=CCCCCCC [oct-1-ene] + OCCOCCO turned out to be 108

// activity coefficient lookup, compound = C1CCCC1 [cyclopentane] + OCCOCCO , result: 30.1

// CCCCC [pentane] + OCCO : activity coefficient value = 338

Measured activity coefficient, CCCCCCCC [octane] + OCCOCCO : 203

The reported value for C1CCCCC1 [cyclohexane] + OCCO in terms of activity coefficient is 212

Recorded activity coefficient (compound CCCCCCCC [octane] + OCCO ): 1340

Looking up CCCCCCC [heptane] + OCCOCCO , I found its activity coefficient recorded as 140

* * *

- procedureDetails: activity coefficient (dimensionless); of the first substance listed, at infinite dilution; xn = mol fraction of the nth substance listed
- experimentalConditions: 313.15 K; 101.33 kPa; Liquid; Chromatography; x1 = 0
reportedProperty: activity coefficient
Provide a numeric answer; units are not to be included.

Some compounds with known activity coefficient results, for comparison:
- CCCCC [pentane] + OCCO: 389
- C=CCCCCCC [oct-1-ene] + OCCO: 819
- C1CCCC1 [cyclopentane] + OCCO: 149
- C=CCCCC [hex-1-ene] + OCCO: 298
- CCCCCCCCC [nonane] + OCCO: 2320
- C1CCCCC1 [cyclohexane] + OCCOCCO: 46.7
- C=CCCCCC [1-heptene] + OCCOCCO: 77.8
- C=CCCCCCCC [1-nonene] + OCCO: 1300
- C1CCCC1 [cyclopentane] + OCCOCCO: 31.6

Measured activity coefficient, CCCCCCC [heptane] + OCCOCCO : 151
